Source of measurements: PubChem BioAssay

- measured-target: Protein kinase 7 (PK7), Plasmodium falciparum 3D7 (PF3D7_0213400) (UniProt Q7YTF7)
- Sequence (Q7YTF7 1-343): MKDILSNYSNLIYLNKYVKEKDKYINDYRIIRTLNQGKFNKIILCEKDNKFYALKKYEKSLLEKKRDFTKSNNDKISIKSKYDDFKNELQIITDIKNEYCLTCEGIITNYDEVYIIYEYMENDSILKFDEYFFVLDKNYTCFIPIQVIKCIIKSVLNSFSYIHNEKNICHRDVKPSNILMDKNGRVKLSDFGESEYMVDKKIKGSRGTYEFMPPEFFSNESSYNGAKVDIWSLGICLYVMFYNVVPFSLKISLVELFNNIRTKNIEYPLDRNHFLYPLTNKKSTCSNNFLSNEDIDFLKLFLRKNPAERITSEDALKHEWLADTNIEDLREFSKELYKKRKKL
- assay-details: inhibition of Plasmodium PK7 catalytic activity – biochemical, TCAMS antimalarial set, Kinase-Glo luminescence (AID 1159587)
- run-conditions: recombinant PfPK7, Kinase-Glo ATP depletion luminescence
The source made the active and inactive calls. No rule for the calls is given here.
assay-metric: outcome

In the examples that follow, each entry is paired with its recorded outcome.
*Q* Determine its reported outcome: "Cc1cccc2[nH]c(-c3ccc(-c4ccc(CN5CCN(CCN6CCOCC6)CC5)cc4)cc3)nc12"
*A* inactive

*Q* Determine from records and report outcome for "N=c1c(C(=O)NCc2ccccc2)cc2c(=O)n3ccccc3nc2n1CCc1ccccc1"
*A* inactive

*Q* Quote outcome reported for CCC(ON1C(N)=NC(N)=NC1(C)C)c1ccc(Cl)cc1 (centres undefined) please.
*A* inactive

*Q* Provide one value: measured outcome of "C[C@]12CC3CC(Nc4nc(N5CCOCC5)nc5ccccc45)(C1)C[C@@](C)(C3)C2"
*A* inactive

*Q* Please give measured outcome of the following entry: "O=C(Nc1ccc(-c2ccccc2)cc1)Nc1cccc(Cn2ncc(N3CCNCC3)c(Cl)c2=O)c1"
*A* inactive

---
*Q* Provide outcome value for the following compound: "O=S(=O)(c1ccc(OCc2ccc(Cl)cc2)cc1)c1cc2c(cc1OCc1ccccc1)CCN(CC1CC1)CC2"
*A* inactive

*Q* Specify reported outcome for the compound shown: "NC(Cc1ccc(Cl)cc1)=NCCN1CCCCCC1"
*A* inactive

*Q* Name the recorded outcome of the compound listed here: COc1cc(NC(=O)c2cc([N+](=O)[O-])ccc2NC(=O)CNC2CCCCC2C)cc(OC)c1 (centres undefined)
*A* inactive

*Q* # return recorded outcome for input "O=C(Nc1ccc(Cl)cc1)Nc1ccc(-c2cccc(-c3nc4ccccc4[nH]3)c2)cc1"
*A* inactive

*Q* Find the measured outcome of "N#Cc1cncc(-c2nc3c(N4CCN(c5cnccn5)CC4)cccc3n2CCNCc2ccccc2)c1" and report it.
*A* inactive

*Q* Complete the entry with outcome for "O=C(Nc1ccccc1)N(Cc1cccc(-c2cccc(CNCc3ccc4c(c3)OCO4)c2)c1)C1CCN(Cc2ccccc2)CC1"
*A* inactive

*Q* Return outcome (reported value) for this compound: "COc1ccc2nccc([C@@H](O)CN3CCC(NCc4cc5ccccc5cn4)CC3)c2n1"
*A* inactive

*Q* Specify outcome for "CC1CCN(CC[C@H]2CCCN2S(=O)(=O)c2cccc(NC(=O)c3cc4ccccc4s3)c2)CC1" and stop.
*A* inactive

*Q* Tell us which outcome value is on record for CCCCCN(C(=O)Nc1cc(C(F)(F)F)cc(C(F)(F)F)c1)C(C)c1nc2ccccc2c(=O)n1CC (centres undefined)
*A* inactive

*Q* Answer with the recorded outcome for the compound listed here: COc1ccc2nccc(N3CCC(NCCNCc4ccc5c(n4)NC(=O)CO5)C3)c2n1 (centres undefined)
*A* inactive

*Q* Name the recorded outcome of the item "COc1ccc(-c2ccc(NC(=O)c3ccc(C#N)cc3)cc2)cc1CN(C)CCN(C)C" in your answer.
*A* inactive

*Q* Specify outcome for "Cn1ccnc1CNC(=O)c1ccc(-c2ccc(-c3nc4ccc(C(F)(F)F)cc4[nH]3)s2)cc1" and stop.
*A* inactive

*Q* Please supply the value of reported outcome for the item "c1cc(CNc2ncc(-c3ccsc3)c(-c3nccs3)n2)ccn1"
*A* inactive

*Q* State, in one line, measured outcome of "Cn1cccc1CCNCc1ccc(-c2cccc(-c3nc4ccc(F)cc4[nH]3)c2)cc1"
*A* inactive
